# credit: PubChem BioAssay (NCATS)

Molecular target: Rap guanine nucleotide exchange factor 4 (Homo sapiens)
Assay: Confirmatory qHTS for antagonist of cAMP-regulated guanine nucleotide exchange factor 4 (EPAC2) (AID 1645885); also: nearly all actives have a fitted effect of over 25% in size
Details: EPAC2 Rap1B-BODIPY-GDP exchange fluorescence, biochemical; series mostly up to 12.7 µM
Records with an inconclusive call do not appear. Active and inactive are the calls of the source. Calls follow the shape of the dose curve; as a rule, active = well fitted inhibition curve with a large enough effect; inconclusive = small, poorly fitted or top-dose-only effect; inactive = no such curve, though single readings can be large or run the other way.
Hi there, use one of these labels in your reply, thanks! 1 (yes) = active, 0 (no) = inactive

Exam item: Kindly provide the recorded test outcome for the following molecule: CCc1ccc(Nc2n[n+](-c3ccccc3)c(-c3cc(OC)c(OC)cc3Br)s2)cc1
Marked response: 0 (no)

Exam item: Same lookup for O=C(Cn1cnc2scc(-c3cccc([N+](=O)[O-])c3)c2c1=O)NCc1ccco1 , please.
Marked response: 0 (no)

Exam item: Then this molecule: CCc1cccc(C)c1Nc1c(-c2cccs2)nc2ncccn12
Marked response: 0 (no)

Exam item: Param item: COC(=O)c1cc(OC)nc2ccc(Br)cc12
Marked response: 0 (no)

Exam item: Another molecule to check: COc1ccc(OC)c(/C=C2\N=C(c3ccccc3)OC2=O)c1
Marked response: 0 (no)

Exam item: Record: CCNC(=O)COc1ccc(/C=C2\COc3ccccc3C2=O)cc1OC
Marked response: 0 (no)

Exam item: Then what about the molecule CN(CC(=O)O)c1ccc(/C=C/c2ccnc3ccccc23)cc1 ?
Marked response: 1 (yes)

Exam item: What would you report for Cc1ccc(Cn2c(Cc3ccccc3)nc3ccccc32)cc1 ?
Marked response: 0 (no)

Exam item: # repeat for COc1cccc(-c2nc3cc(SC)ccc3cc2CN(C(=O)c2csc(C)n2)C2CC2)c1
Marked response: 1 (yes)

Exam item: Also, Cc1cccc(C(=O)Nc2cccc(C(=O)N/N=C/c3cccc(C)n3)c2)c1 please.
Marked response: 0 (no)

Exam item: Further, for N#Cc1c(-c2ccccc2)nc(SCC(=O)N2c3ccccc3Sc3ccccc32)[nH]c1=O ?
Marked response: 0 (no)

Exam item: What about this molecule? CC(=O)NC(c1ccc(C)cc1)c1cc(Cl)c2cccnc2c1O (centres undefined)
Marked response: 0 (no)

Exam item: Do the same for Cc1ccc(S(=O)(=O)N2C(c3ccc(Cl)c(Cl)c3)CC=C(C(=O)O)C2c2ccc(Cl)cc2)cc1 (centres undefined) please
Marked response: 0 (no)

Exam item: Request: CCn1nc([N+](=O)[O-])c(C(C#N)c2nc3cc(C(F)(F)F)ccc3s2)c(Cl)c1=O (centres undefined)
Marked response: 0 (no)

Exam item: Same question, Cc1c(C(=O)NCCO)sc2nc3n(c(=O)c12)CCC3 this time
Marked response: 0 (no)

Exam item: Please give the result for Cn1c(COc2ccc(Cl)cc2)nc2ccccc2c1=O too.
Marked response: 0 (no)

Exam item: // repeat for CCc1ccccc1N(CC(=O)NCCc1ccccc1)C(=O)CCC(=O)Nc1ccccn1 and report
Marked response: 0 (no)

Exam item: Next record, please: CCOC(=O)C1CCCN(C(=O)C(C)(C)Oc2ccc(Cl)cc2)C1 (centres undefined)
Marked response: 0 (no)

Exam item: What would you report for CC(C)C[C@@H](COc1ccccc1)N1CCN(Cc2ccccc2)CCC1=O ?
Marked response: 1 (yes)

Exam item: Note, next up: Cc1nc2sc(C(c3cccs3)N3CCN(c4ccccc4)CC3)c(O)n2n1 (centres undefined)
Marked response: 0 (no)

Exam item: Try this molecule next: COc1ccc(N2CCN(C(c3ccccc3F)c3sc4nc(-c5ccco5)nn4c3O)CC2)cc1 (centres undefined)
Marked response: 0 (no)

Exam item: Item: O=C(O)c1ccc(C=C(c2nc3ccccc3s2)c2nc3ccccc3s2)cc1
Marked response: 0 (no)

Exam item: Likewise for CN(C)c1ccc(/C=C/c2ccnc3ccc(F)cc23)cc1 ?
Marked response: 0 (no)

Exam item: Also Cc1ccccc1OCCC(=O)OCC(=O)N1CCN(S(=O)(=O)c2ccc(Cl)cc2)CC1 , if possible.
Marked response: 0 (no)

Exam item: Request: COc1ccc(S(=O)(=O)N2CCOC23CCN(S(=O)(=O)c2cc(F)ccc2F)CC3)cc1
Marked response: 0 (no)

Exam item: // query: CCCCN1C(=O)C(CC(=O)NC2CCCCC2)CC(C(=O)N2CCCCCC2)=C1C (centres undefined)
Marked response: 0 (no)

Exam item: Let us now turn to C=CCSc1nc2ccccc2c(=O)n1C1CCOC(C)(C)C1 (centres undefined)
Marked response: 0 (no)

Exam item: Same lookup for O=C(O)c1ccc(Nc2ncnc3ccccc23)cc1 , please.
Marked response: 0 (no)

Exam item: Now this one: CN1C(=O)Cc2cc(S(=O)(=O)N3CCN(c4ccccc4F)CC3)ccc21
Marked response: 0 (no)

Exam item: Can you handle CC(C)Cc1csc(NC(=O)c2ccc(Cl)cc2)c1C(=O)O next?
Marked response: 0 (no)

Exam item: Moving on to COc1ccc(-c2nnc(SCC(=O)c3ccco3)n2-c2ccccc2)cc1
Marked response: 0 (no)

Exam item: Do the same for COc1cccc(NC(=O)CCNC(=O)Cn2ccc3ccccc3c2=O)c1 please
Marked response: 0 (no)

Exam item: Request: COCCn1cnnc1SCC(=O)Nc1sc2c(c1C#N)CCC2
Marked response: 0 (no)

Exam item: Proceed to COc1ccccc1CCc1nnc(CCC(=O)N(C)Cc2cccc3ncccc23)o1
Marked response: 0 (no)

Exam item: Also O=C(CCC(=O)N1CCSc2ccccc21)NCc1cccc(Cl)c1 ?
Marked response: 0 (no)

Exam item: // query: CC(=C\c1ccccc1)/C=C1/SC(=S)N(CCCC(=O)O)C1=O
Marked response: 0 (no)

Exam item: Then what about the molecule CC1(C(=O)Nc2ccc(Cl)cc2)Cc2c(-c3cccc(C(N)=O)c3)ccnc2O1 (centres undefined) ?
Marked response: 0 (no)

Exam item: Try this molecule next: c1ccc(-n2nnnc2-n2ccnc2)cc1
Marked response: 0 (no)

Exam item: Continue with COc1ccc(S(=O)(=O)Nc2cccc(F)c2)cc1C
Marked response: 0 (no)

Exam item: Same for CCCOc1cccc(C2C(C(=O)c3cccs3)=C(O)C(=O)N2Cc2cccnc2)c1 (centres undefined)
Marked response: 0 (no)

Exam item: Item: CN1CCN(CCC(=O)Nc2ccc(Cl)cc2)CC1
Marked response: 0 (no)

Exam item: Let us now turn to CCN(CC)S(=O)(=O)c1c(Br)cc(C)cc1Br
Marked response: 1 (yes)

Exam item: Also, Cc1ccc(Cl)cc1NC(=O)C(C)n1nc(-c2ccccc2)ccc1=O (centres undefined) please.
Marked response: 0 (no)

Exam item: Please give the result for CC1CN(C(=O)CCC(=O)NCc2cccc(Cl)c2)c2ccccc2S1 (centres undefined) too.
Marked response: 0 (no)
